Reported ECL signal values are given for each entry in this list.
Molecular target: T1, rHuman EGF R/Fc Chimera, CF (R&D Systems Cat#344-ER) (human, UniProt P00533 25-645)
T1 construct: Bought recombinant protein; also called epidermal growth factor receptor
Experiment: ECL multispot (MSD) binding assay, antigen spotted on plate;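 also: purified Fab incubated 1 h at 20 °C on antigen spots, detected with TAG-labelled antibody, electrochemiluminescence compared with each well's blank, signal-to-blank ratio ≥4 counted as hit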
Enter the number alone.

Fab VH1-46_IGHD6-6*01_IGHJ1*01 S102A/S103P/S104F/H111F (APFF) & L6_IGKJ1*01 S31I (Fab, V domains shown, Tested as Fab (CH1 with His6/Flag tags, kappa CL) made in E. coli; also called APFF / S31I) VH: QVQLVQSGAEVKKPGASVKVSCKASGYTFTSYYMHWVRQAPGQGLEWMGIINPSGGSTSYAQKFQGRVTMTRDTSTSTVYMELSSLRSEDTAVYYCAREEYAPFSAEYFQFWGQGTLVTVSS VL: EIVLTQSPATLSLSPGERATLSCRASQSVSIYLAWYQQKPGQAPRLLIYDASNRATGIPARFSGSGSGTDFTLTISSLEPEDFAVYYCQQRSNWPPWTFGQGTKVEIKR | 363
Fab VH1-46_IGHD6-6*01_IGHJ1*01 S102A/S103P/S104F/H111F (APFF) & L6_IGKJ1*01 S31M (Fab, V domains shown, Tested as Fab (CH1 with His6/Flag tags, kappa CL) made in E. coli; also called APFF / S31M) VH: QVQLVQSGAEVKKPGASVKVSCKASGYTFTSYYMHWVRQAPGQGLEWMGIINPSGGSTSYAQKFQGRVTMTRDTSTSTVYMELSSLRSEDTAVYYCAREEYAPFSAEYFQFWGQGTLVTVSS VL: EIVLTQSPATLSLSPGERATLSCRASQSVSMYLAWYQQKPGQAPRLLIYDASNRATGIPARFSGSGSGTDFTLTISSLEPEDFAVYYCQQRSNWPPWTFGQGTKVEIKR | 380

Proceed to the following item.
Q: Give its ECL signal value. Item: Fab VH1-46_IGHD6-6*01_IGHJ1*01 S102A/S103P/S104F/H111F (APFF) & L6_IGKJ1*01 S31A (Fab, V domains shown, Tested as Fab (CH1 with His6/Flag tags, kappa CL) made in E. coli; also called APFF / S31A) VH: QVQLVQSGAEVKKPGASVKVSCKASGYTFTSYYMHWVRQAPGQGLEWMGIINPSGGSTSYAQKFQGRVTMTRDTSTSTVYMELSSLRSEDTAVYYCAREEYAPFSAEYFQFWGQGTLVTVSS VL: EIVLTQSPATLSLSPGERATLSCRASQSVSAYLAWYQQKPGQAPRLLIYDASNRATGIPARFSGSGSGTDFTLTISSLEPEDFAVYYCQQRSNWPPWTFGQGTKVEIKR
Result: 415

Where these numbers come from: patent US20120316071A1
